The reader will find reported growth inhibition values listed item by item below.
Test: NCI Yeast Anticancer Drug Screen. Data for the cln2 rad14 strain (AID 165);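 note: 0% = growth equal to vehicle treated cultures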
Conditions: S. cerevisiae cln2 rad14 strain, at 5.0 µM (retest, dose inferred, filed as 0.5), hits give high values
Experimental: Growth inhibition of yeast strains with defined genetic alterations is measured as a screen for potential anti-cancer activity. Selected strains with alterations in DNA damage repair or cell cycle control were exposed to compounds and growth inhibition was measured relative to vehicle treated controls. The strain used in this assay is cln2 rad14
About 79,000 compounds went through this panel and 15% of them were active in at least one assay; those are over-represented in the sample as a whole. Where a SMILES comes first, the peptide text is derived from it. The star is where a group is joined. X7 = Clc1c(Cl)c(Cl)c(O*)c(Cl)c1Cl; Boc = CC(C)(C)OC(=O)*; OBn = c1ccc(CO*)cc1; Bn = c1ccc(C*)cc1
Write the answer as a number in %, unit excluded.

A selection of reference data follows.
{"MOLECULE": "Cn1cnc(=S)c2[nH]cnc21", "VALUE_KIND": "growth inhibition", "ASSAY_RESULT": -2}
{"MOLECULE": "CC(C)CC(NC(=O)C(CCC(=O)OCc1ccccc1)NC(=O)OC(C)(C)C)C(=O)NC(COCc1ccccc1)C(=O)NC(Cc1ccccc1)C(=O)Oc1c(Cl)c(Cl)c(Cl)c(Cl)c1Cl (centres undefined) (Boc-E(OBn)LS(Bn)F-X7; configuration not given here)", "VALUE_KIND": "growth inhibition", "ASSAY_RESULT": 26}
{"MOLECULE": "O=C(Nc1ccc(Cl)cc1)OCC1C2C=CC(C2)C1CO (centres undefined)", "VALUE_KIND": "growth inhibition", "ASSAY_RESULT": 2}

Moving on to the next molecule.
Recorded growth inhibition for O=C(O)COc1c(Cl)c(Cl)c(Cl)c(Cl)c1Cl.[Cu+2] , please?
7

====

Test: NCI Yeast Anticancer Drug Screen. Data for the bub3 strain (AID 167)
Conditions: S. cerevisiae bub3 mutant strain, at 50.0 µM (retest, dose inferred, filed as 5.0), hits give high values
The panel holds about 79,000 compounds, 15% with a hit somewhere; the sample as a whole holds those more often.
Item-by-item account of growth inhibition
Number in %, nothing else.

Example cases with answers are listed next.
{"MOLECULE": "O=S(=O)(OI(OI(OS(=O)(=O)C(F)(F)F)c1ccccc1)c1ccccc1)C(F)(F)F", "ENDPOINT_UNIT": "%", "growth inhibition": 98}
{"MOLECULE": "O=S(=O)(C#Cc1ccccc1)c1ccccc1", "ENDPOINT_UNIT": "%", "growth inhibition": 98}
{"MOLECULE": "CCC(=O)Oc1ccc(-c2ccccc2)cc1Cl", "ENDPOINT_UNIT": "%", "growth inhibition": 99}

Find the recorded growth inhibition belonging to O=C(Nc1ccc(NC(=O)Nc2cc(C(=O)Nc3ccc(C4=NCCN4)cc3)ccc2C(=O)Nc2ccc(C3=NCCN3)cc2)cc1)Nc1cc(C(=O)Nc2ccc(C3=NCCN3)cc2)ccc1C(=O)Nc1ccc(C2=NCCN2)cc1 and report it.
16

Record: N=C(N)Cc1ccc(NC(=O)c2ccc(C(=O)Nc3ccc(CC(=N)N)cc3)cc2)cc1
-11

Field entry: CCN(CC)CC(O)CNc1cc(C)nc(/N=C(\N)Nc2ccc(Cl)c(Cl)c2)n1 (stereo unspecified)
30

====

Assay: NCI Yeast Anticancer Drug Screen. Data for the sgs1 mgt1 strain (AID 161);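 note: 0% = growth of cultures given vehicle only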
Settings: S. cerevisiae sgs1 mgt1 strain, at 50.0 µM
This is part of a sample that, as a whole, favours compounds with a hit. Of some 79,000 tested, about 15% had one in any assay. Activity calls are given as the source filed them. No stated cut-off is given here; in the data, active means growth inhibition above about 70%; inactive means the rest.
Lab note: assign the record to one of active, inactive

{"COMPOUND": "C=CCOCCC=O", "GROUP_LABEL": "inactive"}
{"COMPOUND": "CC(C)C[P+](c1ccccc1)(c1ccccc1)c1ccccc1", "GROUP_LABEL": "inactive"}
{"COMPOUND": "c1ccc2c(c1)-c1cccc3cncc-2c13", "GROUP_LABEL": "active"}
{"COMPOUND": "CC1=C[P+](c2ccccc2)(c2ccccc2)C=C(c2ccccc2)O1", "GROUP_LABEL": "active"}
{"COMPOUND": "COC(=O)C1(C)CCc2c(ccc3cccc(OC)c23)C1=O (stereo not given)", "GROUP_LABEL": "inactive"}
{"COMPOUND": "CN(C)CCOC1(CC2CCCCC2)CCC(C(C)(C)C)CC1 (stereo not given)", "GROUP_LABEL": "active"}

Field: outcome | Entry: Cc1cc(NC(=S)SCc2ccc(Cl)cc2)ccc1F
active

Record: O=[N+]([O-])c1ccc2c(c1)/C(=N\O)c1cc(Br)ccc1-2
inactive

Try this compound too: Clc1sc2ccccc2c1Cl
inactive

// repeat for c1csc(CNCc2cccs2)c1 and report
inactive

// query: O=[N+]([O-])c1ccc(C2=Nn3c(nnc3-c3ccc(Cl)cc3)SC2)o1
inactive

Also NC(=O)C1CCCN1C(=O)C1CCCN(Cc2cc(CN3CCCC(C(=O)N4CCCC4C(N)=O)C3)cc(CN3CCCC(C(=O)N4CCCC4C(N)=O)C3)c2)C1 (stereo not given) , if possible.
inactive

Same thing, different compound: CC1(C)C(=O)C(C(Cl)(Cl)Cl)=C(Cl)C(=O)C1(Cl)Cl
inactive

Same read-out for Nc1ccc(N=Nc2ccccc2)c2ccccc12 ?
active

Also O=C(Nc1ccccc1Cl)c1ccc(Cl)c(Cl)c1 , if possible.
inactive

Also CC(C)NC(=O)OCCN=C1c2ccccc2CCc2ccccc21 ?
active

Likewise for COc1ccc(C(=O)C2OC2c2ccccc2)cc1 (stereo not given) ?
inactive

Again, but for c1ccc2cc3c(cc2c1)Nc1c2ccccc2nc2cccc-3c12
active

Okay, and Cc1cc(O)c(O)cc1C/C=C/c1ccccc1 ?
inactive

Now give it for COc1ccc(C(O)(c2ccccc2)c2ccccc2)cc1 too.
active

====

Assay: NCI Yeast Anticancer Drug Screen. Data for the sgs1 mgt1 strain (AID 161);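 note: 0% = growth of cultures given vehicle only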
Details: S. cerevisiae sgs1 mgt1 strain, at 50.0 µM (retest, dose inferred, filed as 5.0), hits give high values
Compounds without any hit were thinned out: in the full panel of roughly 79,000, 15% have a hit. Active and inactive are the calls of the source. Cut-off read from the data, not from the text of the source: active = growth inhibition above about 70%; inactive = the rest.
# growth inhibition per entry

Look over these answered cases.
{"MOLECULE": "Clc1ccccc1CN1COc2c(cc(Cl)c3cccnc23)C1", "ASSAY_RESULT": "100% (active)"}
{"MOLECULE": "CC1CCCC(C(c2c[nH]c3ccccc23)c2c[nH]c3ccccc23)C1=O (stereo unspecified)", "ASSAY_RESULT": "97% (active)"}

Sample O=C1CN=C(c2ccccc2)N(c2ccccc2)N1 — what was its growth inhibition?
96% (active)

Then Cc1cccc2c1CC1(C2)Cc2c(C)cccc2C1=O (stereo unspecified) ?
68% (inactive)

Another molecule: CC(C)(C)C1CCC2c3c([nH]c4ccccc34)C3C(=O)N(c4ccc(C(=O)O)cc4)C(=O)C3C2C1 (stereo unspecified)
99% (active)

Now give it for CCCCC1C(=O)N2c3ccccc3-c3ccccc3N2C1=O too.
23% (inactive)

Also need CCCCCNC(=O)C1C(=O)N(CCCCC)C(=O)/C1=N\N (stereo unspecified) , thanks.
3% (inactive)

====

Assay: NCI Yeast Anticancer Drug Screen. Data for the rad50 strain (AID 155);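 note: 0% = growth of vehicle-only cultures of the same strain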
Conditions: S. cerevisiae rad50 strain growth inhibition; at 5.0 µM (retest, dose inferred, filed as 0.5); hits give high values
The panel holds about 79,000 compounds, 15% with a hit somewhere; the sample as a whole holds those more often.
VALUE_KIND: growth inhibition (%)
Enter your answer as a number in %; do not include the unit.

These solved cases illustrate the format of a correct answer.
{"MOLECULE": "COc1ccc(N=Nc2ccc3oc(=O)c(C(=O)Nc4ccccc4C)cc3c2)cc1", "growth inhibition / %": 3}
{"MOLECULE": "CCOc1ccc2c(c1)[n+]([O-])c(-c1ccc([N+](=O)[O-])cc1)c(N)[n+]2[O-]", "growth inhibition / %": 22}
{"MOLECULE": "OCCCC(Sc1ccccc1)c1ccccc1 (stereo unspecified)", "growth inhibition / %": -1}
{"MOLECULE": "Cc1nc(-c2ccc(N=Cc3ccc(N(CCOS(C)(=O)=O)CCOS(C)(=O)=O)cc3)cc2)cs1", "growth inhibition / %": 1}
{"MOLECULE": "NCCc1ccc2oc3cc(=O)c4ccccc4c-3nc2c1", "growth inhibition / %": 3}

// returns reported growth inhibition for input COc1ccc2c(Cc3ccccc3)c3[n+](cc2c1OC)CCc1cc2c(cc1-3)OCO2
2

Please do the same for COC(=O)/C(C#N)=C(/SC)N(C)C as well.
4

And COc1ccc(-c2nc(C)[nH]c(=O)c2Cc2c(O)ccc3ccccc23)cc1 ?
3

And what about the molecule O=C(O)/C(Cl)=C(\Cl)C(=O)Nc1c(Cl)cccc1Cl ?
-9

Also Cc1cc(I)ccc1NC(=S)Nc1ccccc1F , if possible.
-3

Entry COc1ccc(CCN2C(=O)C(=O)N(C3CCCCC3)C2=O)cc1OC please
-1
